- assay_target: pooled human IgG
Label Satisfied when Enzyme Activity Endpoint Assay: Fab′2 is at or above 10 ng/µL; otherwise label Not satisfied.

>  <protein>
PRT-3 (protein) MRNATEAYAKEVPHQITSVWTKGVTPLTPEQFRYNNEDVIHAPYLAHQGWYDITKAFDGKDNLLCGAATAGNMLHWWFDQNKTEIEAYLSKHPEKQKIIFNNQELFDLKAAIDTKDSQTNSQLFNYFRDKAFPNLSARQLGVMPDLVLDMFINGYYLNVFKTQSTDVNRPYQDKDKRGGIFDAVFTRGDQTTLLTARHDLKNKGLNDISTIIKQELTEGRALALSHTYANVSISHVINLWGADFNAEGNLEAIYVTDSDANASIGMKKYFVGINAHGHVAISAKKIEGENIGAQVLGLFTLSSGKDIWQKLS

>  <cat>
Satisfied

$$$$
>  <protein>
PRT-551 (protein) MANQEIRYSEETPSTITSVWTKGVTPPTDFIQNEDVLHAPYIANQGWYDITKTFNGKDDLLCGAATAGNMLHWWFDQNKEEIENYLKKHPEKQKINFNGEQMFDVKEAIDTKDSQTDSALFEYFKDKAFPYLSTKHLGVFPDHVIDMFINGYRLSLTNHGPTPVKRGTKDPRGGIFDAVFTRGDQSKLLTARHDFKEKTLNEISDLIKQELTEGKALGLSHTYANVRINHVINLWGADFNSEGNLEAIYVTDSDSNASIGMKKYYVGVNAAGKVAISAKEIEGDNIGAQVLGLFTLSTGQDIWNQTNLEHHHHHH

>  <cat>
Satisfied

$$$$
>  <protein>
PRT-589 (protein) MRNQTTTYSEVTPSHITSVWTKGVTPPEQFIQGEDVFHAPYIANQGWYDITKTFNGKDDLLCGAATAGNMLHWWFDQNKEQIENYLKKHPEKQKINFNNEEMFDVREAINTKDSQTDSALFSYFKDKAFPYLSAKHLGVFPDHVIDMFINGYRLSLTNHDKTDVNRGTKDPRGGIFDAVFTRGDQSKLLTARHDFKNKTLKEISDLIKQELTEGKALGLSHTYANVRINHVINLWGADFDAEGNLEAIYVTDSDSNASIGMKKYYVGVNSAGKVAISAKKIEGDNIGAQVLGLFTLSTGQDIWQQTNLEHHHHHH

>  <cat>
Satisfied

$$$$
>  <protein>
PRT-44 (protein) MANQEIRYSEVTPYHVTSVWTKGVTPPANFTQGEDVFHAPYVANQGWYDITKTFNGGDDLLCGAATAGNMLHWWFDQNKDQIDRYLEEHPEKQKINFNGEQMFDVKEAIDTKNSQTDSKLFEYFKEKAFPYLSTKHLGVFPDLVLDMFINGYRLSLTNHGPTPVKEGSKDPRGGFFDDVFTRGDQSKLLTSRHDFKEKNLKEISDLIKKELTEGKALGLSHTYANVRINHVINLWGADFDSNGNLKAIYVTDSDSNASIGMKKYFVGVNSAGKVAISAKEIKEDNIGAQVLGLFTLSTGQDSWNQTN

>  <cat>
Not satisfied

$$$$
>  <protein>
PRT-13 (protein) MANQEIRYSEETPYHVTSVWTKGVTPPANFTQGEDVFHAPYKANQGWYDITKTFNGKDDLLCGAATAGNMLHWWFDQNKDQIEAYLKEHPEKQKINFNGEQMFDVKEAIDTKDDQTNSKLFEYFKEKAFPYLSTKHLGVFPDHVLDMFINGYRLSLTNHGPTPVKEGSKDPRGGIFDAVFTRGDQSKLLTSRHDFKEKTLKEISDLIKQELTEGKALALSHTYANVRINHVINLWGADFDSNGNLEAIYVTDSDSNASIGMKKYFVGVNSAGKVAISAKEIEDDNIGAQVLGLFTLSTGQDIWNQTN

>  <cat>
Not satisfied

$$$$
>  <protein>
PRT-285 (protein) MVTSVWTKGVTPPAKFTQGEDVFHAPYDANQGWYDITKTFNGKDDLLCGAATAGNMLHWWFDQNKEKIEAYLKKHPDKQKIMFGDQELLDVRKVINTKGDQTNSELFNYFRDKAFPGLSARRIGVMPDLVLDMFINGYYLNVYKTQTTDVNRTYQEKDRRGGIFDAVFTRGDQSKLLTSRHDFKEKNLKEISDLIKKELTEGKALGLSHTYANVRISHVINLWGADFDSNGNLKAIYVTDSDSNASIGMKKYGVGVNSAGKVAISAKEIKEDNIGAQVLGLFTLSTGQDSWNQTN

>  <cat>
Not satisfied

$$$$
>  <protein>
PRT-8 (protein) MANQEIRYSEVTPYHVTSVWTKGVTPPTNFTQGEDVFHAPYIANQGWYDITKTFNGKDDLLCGAATAGNMLHWWFDQNKDQIERYLKEHPEKQKINFNGEQMFDVKEAIDTKNSQLDSKLFEYFKEKAFPYLSTKHLGVFPDHVLDMFINGYRLSLTNHGPTPVKEGSKDPRGGIFDAVFTRGDQSKLLTSRHDFKEKNLKEISDLIKQELTEGKALGLSHTYANVRINHVINLWGADFDSNGNLEAIYVTDSDSNASIGMKKYFVGVNSAGKVAISAKEIKDDNIGAQVLGLFTLSTGQDIWNQTN

>  <cat>
Satisfied

$$$$
>  <protein>
PRT-558 (protein) MANQEIRYSEETPSTITSIWTKGVTPPTQFIQNEDVLHAPYIANQGWYDITKTFNGKDDLLCGAATAGNMLHWWFDQNKTEIENYLTKHPEKQKINFNGEQMFDVKEAIDTKDSQTDSALFSYFKDKAFPYLSTKHLGVFPDHVIDMFINGYRLSLTNHGPTPVKRGTKDPRGGIFDAVFTRGDQTKLLTARHDFKEKTLNEISDLIKQELTEGKALGLSHTYANVRINHVINLWGADFNSEGNLEAIYVTDSDSNASIGMKKYYVGVNAAGKVAISAKEIEGDNIGAQVLGLFTLSTGQDIWQQTNLEHHHHHH

>  <cat>
Satisfied

$$$$
